Test details: Kinetic solubility evaluation
Format: physicochemical
Condition parameters: water, thermodynamic from solid; H2O (pH 6.95), 37° C., 4 hrs; read-out: S (Solubility of freebase)
Experimental endpoint: solubility at 4 h (mg/mL)
Numbers only; they are read as mg/mL.

Look up and report measured solubility at 4 h for this entry: COc1cc(C(F)(F)CCC(=O)N2CC3CCC(C2)N3c2ccc(C#N)cn2)ccn1 [Compound] 0.02

====

Test details: Kinetic solubility evaluation
Format: physicochemical
Condition parameters: water, thermodynamic from solid; H2O (pH 6.95), 37° C., 24 hrs; read-out: S (Solubility of freebase)
Experimental endpoint: solubility at 24 h
// return the numeric value with its unit appended

Look up and report measured solubility at 24 h for this entry: COc1cc(C(F)(F)CCC(=O)N2CC3CCC(C2)N3c2ccc(C#N)cn2)ccn1 20 µg/mL

====

System under test: human M4 receptor (Homo sapiens, UniProt P08173)
Sequence (P08173 1-479): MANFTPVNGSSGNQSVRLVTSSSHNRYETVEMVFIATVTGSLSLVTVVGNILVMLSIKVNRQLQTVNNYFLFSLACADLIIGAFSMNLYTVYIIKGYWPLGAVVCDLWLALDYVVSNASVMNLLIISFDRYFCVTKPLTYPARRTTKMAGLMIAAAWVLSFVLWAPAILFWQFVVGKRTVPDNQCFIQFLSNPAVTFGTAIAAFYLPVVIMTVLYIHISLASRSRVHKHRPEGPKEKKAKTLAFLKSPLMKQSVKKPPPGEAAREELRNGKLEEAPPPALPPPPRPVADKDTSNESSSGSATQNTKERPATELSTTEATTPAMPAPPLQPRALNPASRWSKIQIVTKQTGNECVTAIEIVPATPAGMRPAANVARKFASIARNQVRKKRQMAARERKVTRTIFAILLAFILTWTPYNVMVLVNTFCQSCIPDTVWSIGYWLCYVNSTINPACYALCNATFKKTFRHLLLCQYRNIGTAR
Test details: In vitro functional assay of muscarinic acetylcholine receptor activity (aequorin calcium flux, reversal of acetylcholine EC50 response)
pIC50: −log10 of the molar value.
Experimental endpoint: pIC50

Answer with pIC50 of COc1cc(C(F)(F)CCC(=O)N2CC3CCC(C2)N3c2ccc(C#N)cn2)ccn1 measured for human M4 receptor (Homo sapiens, UniProt P08173). 6.00 to 7.00

Cited source for all entries: patent US20240217981A1
